- Test system: MOLT-4
- Assay details: NCI tumour cell line growth inhibition, 48 h
Activity calls are given as the source filed them. No stated cut-off is given here; in the data, active = GI50 up to about 1.1 µM and inactive = higher.
Hello, when you answer, please use one of the following outcomes: 1 for active, 0 for inactive

Recorded test call requested for CN(C)CCNc1ccc2ncn3c4ccccc4c(=O)c1c23
1

Just curious, what result did Cc1cc(O)nc(NN2C(Cl)C(=O)C2c2ccccc2O)n1 (stereo not given) get here?
1

Dear all, I need the recorded test outcome for OC1(c2ccccc2)CC2CCC(C1)N2CCCC1(c2ccc(F)cc2)OCCO1 (stereo not given) , thank you.
0

* * *

- Test system: SW-620
- Assay details: NCI tumour cell line growth inhibition, 48 h
Active and inactive are the calls of the source. No stated cut-off is given here; in the data, active = GI50 up to about 1.1 µM and inactive = higher.
Listed here are compounds together with their documented GI50.

Compound: Cn1c(=O)nc2n(-c3cccc(F)c3)c3ccccc3nc-2c1=O
Readout label: GI50
Recorded measurement: 11.1 µM (inactive)
--
Compound: CC[C@@]1(O)C(=O)OCc2c1cc1n(c2=O)Cc2c-1nc1ccccc1c2/C=N/c1ccccc1N[C@@H]1c2cc3c(cc2[C@@H](c2cc(OC)c(O)c(OC)c2)[C@H]2C(=O)OC[C@@H]21)OCO3
Readout label: GI50
Recorded measurement: 0.157 µM (active)
--
Compound: Nc1nc(Cl)c(N)c(NCC2(CO)CCC2)n1
Readout label: GI50
Recorded measurement: > 100 µM (inactive)
--
Compound: CC(C)C/N=C(\N)N=C(N)N
Readout label: GI50
Recorded measurement: > 100 µM (inactive)
--
Compound: O=C(O)c1ccc(Oc2nc3ccccc3s2)cc1
Readout label: GI50
Recorded measurement: > 100 µM (inactive)

Param item = CC1OC(O[C@@H]2C=C3CC[C@@H]4[C@H](CC[C@]5(C)[C@@H](c6ccc(=O)oc6)CC[C@]45O)[C@@]3(C)CC2)C(O)C(OC2OC(CO)C(O)C(O)C2O)C1O (stereo not given in full) ; retrieve measured GI50.
0.025 µM (active)

Would you mind telling me what GI50 value was observed for O=C(CC(=O)N1N=C(c2ccccc2)C(/N=N/c2ccc(Cl)cc2)C1=O)Nc1ccccc1Cl (stereo not given) ?
40.7 µM (inactive)

Entry under review: CCN(CC)C(=S)S [DITIOCARB SODIUM] . Reported GI50?
0.117 µM (active)

Requested field: GI50. Item: COc1ccc(O[C@H](CO)C[C@@H]2COC(C)(C)O2)cc1
> 100 µM (inactive)
